MEASURED ON: T1, EBV gp350 stably expressed on CHO cells (Epstein-Barr virus, UniProt P03200)
T1 construct: stably co-transfected with full-length pCAGGS-gp350/220 and pCI-puro vector; expressed in transfected cells; host or cells: CHO cells
TEST: Epitope mapping by competitive cell binding assay with biotinylated mAbs
SETUP CONDITIONS: unlabeled mAb 125 μg/ml; biotinylated m72A1 1 μg/ml
MEASURED PARAMETER: % inhibition of biotinylated nAbs (biotinylated m72A1) (%)

{"columns": ["MOLECULE", "OBS VALUE"],
 "data": [
  ["HB22: murine anti-EBV gp350 mAb, IgG1 κ; SEQ ID NO: 130 / 131; non-nAb (antibody, V domains shown, heavy chain mAb HB22; light chain mAb HB22, murine anti-EBV gp350 mAb, IgG1 κ; non-nAb) VH: PGLVAPSQSLSITCTVSGFSLTNYGIHWVRQPPGKGLEWLVVIWSDGSTIYNSALKSRLSISKDNSKSQVFLKMNSLQTDDTAMYYCARNYYGNSYPAWFAYWGQGTLVTVSAAKTTPPSVYPLAPGSAAQTNSMVTLG VL: LSLPVSLGDQASISCRSSQSIVHSNGNTYLEWYLQKPGQSPKLLIYKVSNRFSGVPDRFSGSGSGTDFTLRISRVEAEDLGVYYCFQGSHVPWTFGGGTKLEIKRADAAPTV", 16]
]}

Where these numbers come from: patent US12012446B2
